# assay.system: furin, P09958;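 further: purified furin at 1:10 enzyme:substrate in 50 mM HEPES pH 7.5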
# Sequence (P09958 whole entry): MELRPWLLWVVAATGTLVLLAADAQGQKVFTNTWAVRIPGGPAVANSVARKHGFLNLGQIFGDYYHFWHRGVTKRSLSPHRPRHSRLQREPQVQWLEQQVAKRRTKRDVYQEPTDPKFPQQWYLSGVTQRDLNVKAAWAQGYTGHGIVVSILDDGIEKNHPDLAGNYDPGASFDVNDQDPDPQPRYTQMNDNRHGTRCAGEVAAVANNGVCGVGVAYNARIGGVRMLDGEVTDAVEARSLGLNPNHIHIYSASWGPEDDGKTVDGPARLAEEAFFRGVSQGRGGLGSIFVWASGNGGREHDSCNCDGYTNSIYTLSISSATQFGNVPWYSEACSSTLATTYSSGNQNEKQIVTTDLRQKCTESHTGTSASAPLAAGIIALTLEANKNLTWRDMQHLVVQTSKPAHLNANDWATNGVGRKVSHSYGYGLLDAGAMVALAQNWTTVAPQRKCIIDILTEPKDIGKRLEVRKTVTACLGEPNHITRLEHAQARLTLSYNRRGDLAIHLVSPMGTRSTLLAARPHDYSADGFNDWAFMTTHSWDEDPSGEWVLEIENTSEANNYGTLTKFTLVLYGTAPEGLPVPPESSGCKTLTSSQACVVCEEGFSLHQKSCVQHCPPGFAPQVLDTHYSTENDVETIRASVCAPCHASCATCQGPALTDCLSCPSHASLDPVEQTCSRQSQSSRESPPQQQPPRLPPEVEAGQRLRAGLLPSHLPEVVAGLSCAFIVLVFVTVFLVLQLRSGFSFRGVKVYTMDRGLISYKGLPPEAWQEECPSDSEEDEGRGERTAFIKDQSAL
# experimental.details: furin cleavage Z-score vs untreated control; higher = more cleavage, active = 3.5 or more, inactive = 1 or less, 8 variable residues between constant flanks
# setup.conditions: 15 min
This is one part of the list. The hit rate among all sequences tested is not known here.
Output constraint: value belongs to active, inactive

Observe how each entry below is paired with its result.
Assay outcome for CARKKRADKKAGNASASA [FS-2961] : what was it?
active

Test call for this sequence, please: CARKKREKKKAGNASASA [FS-2964]
inactive

Could you check what this test reported for CAVEFLVQAWAGNASASA [HC1471] ?
inactive

Returns: the outcome recorded for CARKKRATHSAGNASASA [FS-2562] in this assay.
active

Called result for CAEFEVPCHRAGNASASA [HC2447]
inactive

Which result was noted for this sequence in the test: CARLKRNIGYAGNASASA [FS-1962]
active

Hey, what did the test say about CARKKRSTKKAGNASASA [FS-2270] ?
active

Outcome logged for CARSSRSPPGAGNASASA [FS-3098] in this assay:
inactive

Others:
What classification did CARLKRSRLKAGNASASA [FS-1741] end up with in this test?
active

// param item: CARNARNVSQAGNASASA [FS-3003] ; yields the recorded call
active
